Origin of values: paper PMC5943959

targetUnderTest: hCA VA (Homo sapiens, UniProt P35218)
Construct: made in house
Sequence (P35218 39-305): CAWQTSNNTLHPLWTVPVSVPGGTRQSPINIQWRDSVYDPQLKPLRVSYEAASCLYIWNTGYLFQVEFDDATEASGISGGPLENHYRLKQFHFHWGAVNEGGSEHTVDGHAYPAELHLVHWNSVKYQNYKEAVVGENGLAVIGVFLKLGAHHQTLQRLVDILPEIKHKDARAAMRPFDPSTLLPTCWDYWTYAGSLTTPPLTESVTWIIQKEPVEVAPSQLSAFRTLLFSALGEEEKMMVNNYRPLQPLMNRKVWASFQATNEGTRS
assayName: stopped-flow CO2 hydrase assay, hCA VA
Type: biochemical
testParameters: recombinant enzyme; errors ± 5–10%, 3 assays; read-out: Ki hCA VA
attributeMeasured: Ki (nM)

In the examples that follow, each entry is paired with its recorded Ki.
{"structureSmiles": "N#Cc1ccc(NCCc2ccccc2)c([N+](=O)[O-])c1", "endpointResult": 92.5}
{"structureSmiles": "CC(=O)Nc1cccc(Nc2c([N+](=O)[O-])cc(C(=O)O)cc2[N+](=O)[O-])c1", "endpointResult": 144}

A = O=C(CSc1nnc(-c2ccncc2)s1)Nc1cc(C(=O)O)cc([N+](=O)[O-])c1
B = O=C(O)c1ccc(NCc2cccnc2)c([N+](=O)[O-])c1
Larger number for Ki: A , or B ? Kindly state the label of the option you pick.
A

====

pKi values by entry
targetUnderTest: hCA I (Homo sapiens, UniProt P00915)
Construct: made in house
Sequence (P00915 whole entry): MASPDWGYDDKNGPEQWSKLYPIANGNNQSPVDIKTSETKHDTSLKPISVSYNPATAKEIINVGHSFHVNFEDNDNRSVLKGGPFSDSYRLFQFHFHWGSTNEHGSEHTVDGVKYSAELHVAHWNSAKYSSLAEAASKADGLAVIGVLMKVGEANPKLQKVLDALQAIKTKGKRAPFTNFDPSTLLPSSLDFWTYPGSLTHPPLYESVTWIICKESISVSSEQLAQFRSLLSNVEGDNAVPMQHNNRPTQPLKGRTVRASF
assayName: stopped-flow CO2 hydrase assay, hCA I
Type: biochemical
In textbook form, pKi equals minus log to base ten of the concentration in mol/L.

{"molecule": "O=C(O)c1ccc(NCCc2ccc(Cl)cc2)c([N+](=O)[O-])c1 [Compound 5]", "pKi": 5.09}

Given the entry O=C(O)c1ccc(Sc2nnc(Sc3ccc(C(=O)O)cc3[N+](=O)[O-])s2)c([N+](=O)[O-])c1 [Compound 8] , report its measured pKi.
5.19

====

targetUnderTest: hCA VII (Homo sapiens, UniProt P43166)
Construct: made in house
Sequence (P43166 whole entry): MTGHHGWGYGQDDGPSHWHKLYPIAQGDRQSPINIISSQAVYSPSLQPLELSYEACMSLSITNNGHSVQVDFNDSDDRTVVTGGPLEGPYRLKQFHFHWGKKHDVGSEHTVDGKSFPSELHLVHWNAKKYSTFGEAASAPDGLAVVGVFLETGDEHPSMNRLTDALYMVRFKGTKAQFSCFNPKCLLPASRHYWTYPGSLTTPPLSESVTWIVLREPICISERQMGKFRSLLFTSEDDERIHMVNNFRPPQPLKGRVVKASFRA
assayName: stopped-flow CO2 hydrase assay, hCA VII
Format: biochemical
attributeMeasured: hCA VII inhibition (in words)

{"structureSmiles": "O=C(O)c1ccc(Sc2nnc(Sc3ccc(C(=O)O)cc3[N+](=O)[O-])s2)c([N+](=O)[O-])c1", "attributeMeasured": "hCA VII inhibition (in words)", "endpointResult": "inactive"}
{"structureSmiles": "N#Cc1ccc(NCCc2ccccc2)c([N+](=O)[O-])c1", "attributeMeasured": "hCA VII inhibition (in words)", "endpointResult": "inactive"}
{"structureSmiles": "O=C(O)c1ccc(NCCc2ccc(Cl)cc2)c([N+](=O)[O-])c1", "attributeMeasured": "hCA VII inhibition (in words)", "endpointResult": "inactive"}
{"structureSmiles": "O=C(O)c1ccc(NCc2cccnc2)c([N+](=O)[O-])c1", "attributeMeasured": "hCA VII inhibition (in words)", "endpointResult": "inactive"}

====

targetUnderTest: hCA XII (Homo sapiens)
Construct: made in house
assayName: stopped-flow CO2 hydrase assay, hCA XII
Type: biochemical
testParameters: recombinant enzyme; errors ± 5–10%, 3 assays; read-out: Ki hCA XII
attributeMeasured: Ki (nM)

P = CC(C)(C)OC(=O)N1CCC(Nc2ccc(C(=O)O)cc2[N+](=O)[O-])CC1
Q = O=C(CSc1nnc(-c2ccncc2)s1)Nc1cc(C(=O)O)cc([N+](=O)[O-])c1
I would appreciate it if you could say which entry, P or Q , has the lower Ki value. Pick one; state its label.
Q

====

targetUnderTest: hCA XII (Homo sapiens, UniProt O43570)
Construct: made in house
Sequence (O43570 25-354): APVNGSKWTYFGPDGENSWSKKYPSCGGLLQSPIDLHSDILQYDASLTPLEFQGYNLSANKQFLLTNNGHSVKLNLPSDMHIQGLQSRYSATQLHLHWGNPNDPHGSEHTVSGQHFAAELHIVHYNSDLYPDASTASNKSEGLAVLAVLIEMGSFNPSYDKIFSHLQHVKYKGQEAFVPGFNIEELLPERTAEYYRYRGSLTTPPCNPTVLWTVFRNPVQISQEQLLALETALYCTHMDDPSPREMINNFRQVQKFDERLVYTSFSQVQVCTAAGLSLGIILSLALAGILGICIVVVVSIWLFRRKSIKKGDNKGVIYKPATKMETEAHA
assayName: stopped-flow CO2 hydrase assay, hCA XII
Assay type: biochemical
testParameters: ratio of Ki values
attributeMeasured: Selectivity Index hCA II/hCA XII

Below, 2 compounds whose answers are already recorded.
{"compound": "O=C(Cc1ccccc1)Nc1ccc(C(=O)O)cc1 [Compound 18]", "Selectivity Index hCA II/hCA XII": 12.1}
{"compound": "O=C(O)c1cc([N+](=O)[O-])c(NCCc2ccccc2)c([N+](=O)[O-])c1 [GV2-20]", "Selectivity Index hCA II/hCA XII": 7.01}

I = O=C(O)c1ccc(Sc2nnc(-c3cccc(Br)c3)o2)c([N+](=O)[O-])c1 [Compound 1]
II = Cc1cc(C(=O)Nc2cc(C(=O)O)cc([N+](=O)[O-])c2)no1 [Compound 9]
# query: argmin of Selectivity Index hCA II/hCA XII over I and II Label of pick, please.
II

====

targetUnderTest: hCA II (Homo sapiens, UniProt P00918)
Construct: made in house
assayName: stopped-flow CO2 hydrase assay, hCA II
Format: biochemical
testParameters: recombinant enzyme; errors ± 5–10%, 3 assays; read-out: Ki hCA II
pKi: −log10 of the molar value.
attributeMeasured: pKi

{"structureSmiles": "O=C(Cc1ccccc1)Nc1ccc(C(=O)O)cc1", "targetUnderTest": "hCA II (Homo sapiens, UniProt P00918)", "pKi": 5.12}
{"structureSmiles": "CS(=O)(=O)c1ccc(C(=O)O)cc1[N+](=O)[O-]", "targetUnderTest": "hCA II (Homo sapiens, UniProt P00918)", "pKi": 5.14}

====

targetUnderTest: hCA VII (Homo sapiens)
Construct: made in house
assayName: stopped-flow CO2 hydrase assay, hCA VII
Type: biochemical
testParameters: recombinant enzyme; errors ± 5–10%, 3 assays; read-out: Ki hCA VII
attributeMeasured: Ki (nM)

In the examples that follow, each entry is paired with its recorded Ki.
{"structureSmiles": "Cc1cc(C(=O)Nc2cc(C(=O)O)cc([N+](=O)[O-])c2)no1", "Ki, nM": 762}
{"structureSmiles": "O=C(O)c1ccc(N2CCc3ccccc32)c([N+](=O)[O-])c1", "Ki, nM": 840}

a = O=C(O)c1ccc(Sc2ccccn2)c([N+](=O)[O-])c1
b = O=C(O)c1ccc(Sc2nnc(-c3cccc(Br)c3)o2)c([N+](=O)[O-])c1
Between item a and item b , which reported Ki is smaller? Answer = label.
b
(b: 325 nM, a: 665 nM)

====

targetUnderTest: hCA IV (Homo sapiens, UniProt P22748)
Construct: made in house
Sequence (P22748 19-312): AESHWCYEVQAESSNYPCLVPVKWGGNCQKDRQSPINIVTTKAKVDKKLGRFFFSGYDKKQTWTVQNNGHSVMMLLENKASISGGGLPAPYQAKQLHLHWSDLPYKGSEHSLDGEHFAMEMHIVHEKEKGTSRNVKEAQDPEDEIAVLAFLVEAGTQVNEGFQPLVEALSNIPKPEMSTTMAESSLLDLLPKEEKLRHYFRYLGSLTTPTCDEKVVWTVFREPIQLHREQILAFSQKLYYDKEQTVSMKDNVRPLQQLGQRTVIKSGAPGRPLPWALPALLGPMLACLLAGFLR
assayName: stopped-flow CO2 hydrase assay, hCA IV
Assay type: biochemical
attributeMeasured: Ki (µM)
Entry rule: numbers only, all in µM.

May I ask what Ki has been recorded for `O=C(O)c1ccc(Sc2nnc(Sc3ccc(C(=O)O)cc3[N+](=O)[O-])s2)c([N+](=O)[O-])c1` ?
8.8

====

targetUnderTest: hCA XII (Homo sapiens, UniProt O43570)
Construct: made in house
assayName: stopped-flow CO2 hydrase assay, hCA XII
Assay type: biochemical
testParameters: recombinant enzyme; errors ± 5–10%, 3 assays; read-out: Ki hCA XII
attributeMeasured: Ki (nM)

{"structureSmiles": "CC1=NN(c2ccc(C)cc2)C(=O)/C1=C/Nc1ccc(C(=O)O)cc1[N+](=O)[O-]", "attributeMeasured": "Ki", "endpointResult": 352}
{"structureSmiles": "CC(=O)Nc1cccc(Nc2c([N+](=O)[O-])cc(C(=O)O)cc2[N+](=O)[O-])c1", "attributeMeasured": "Ki", "endpointResult": 91.9}

P = O=C(O)c1ccc(Sc2ccccn2)c([N+](=O)[O-])c1
Q = Cc1ccc(S(=O)(=O)c2ccc(C(=O)O)cc2[N+](=O)[O-])cc1
Lower Ki: P or Q ? Pick one; state its label.
P
(P: 82.1 nM, Q: 778 nM)

I = O=C(O)c1ccc(Sc2nnnn2-c2ccccc2)c([N+](=O)[O-])c1
II = N#Cc1ccc(NCCc2ccccc2)c([N+](=O)[O-])c1
From the items above, decide which of I and II has the lower Ki reading. Identify your pick by its label.
I

A = O=C(O)c1ccc(NCc2cccnc2)c([N+](=O)[O-])c1
B = O=C(O)c1ccc(Sc2nnc(-c3cccc(Br)c3)o2)c([N+](=O)[O-])c1
Between A and B , which one has the lower reported Ki value? Lab note: record the label of whichever item you select.
B

====

targetUnderTest: hCA XII (Homo sapiens, UniProt O43570)
Construct: made in house
assayName: stopped-flow CO2 hydrase assay, hCA XII
Assay type: biochemical
attributeMeasured: pKi
Field pKi (float): negative decimal logarithm of the concentration in molar.

Item under review: `O=C(O)c1ccc(Sc2nnc(Sc3ccc(C(=O)O)cc3[N+](=O)[O-])s2)c([N+](=O)[O-])c1` . Reported pKi?
6.04

====

targetUnderTest: hCA IX (Homo sapiens)
Construct: made in house
assayName: stopped-flow CO2 hydrase assay, hCA IX
Format: biochemical
testParameters: ratio of Ki values
attributeMeasured: Selectivity Index hCA II/hCA IX

Some compounds with recorded Selectivity Index hCA II/hCA IX:
{"structureSmiles": "O=C(O)c1ccc(N2CCc3ccccc32)c([N+](=O)[O-])c1", "Selectivity Index hCA II/hCA IX": 34.9}
{"structureSmiles": "O=C(Cc1ccccc1)Nc1ccc(C(=O)O)cc1", "Selectivity Index hCA II/hCA IX": 104.8}
{"structureSmiles": "CCOC(=O)C1CCN(c2ccc(C(=O)O)cc2[N+](=O)[O-])CC1", "Selectivity Index hCA II/hCA IX": 263.1}
{"structureSmiles": "O=C(O)c1ccc(Sc2nnc(-c3cccc(Br)c3)o2)c([N+](=O)[O-])c1", "Selectivity Index hCA II/hCA IX": 11.88}

1 = Cc1cc(C(=O)Nc2cc(C(=O)O)cc([N+](=O)[O-])c2)no1
2 = CS(=O)(=O)c1ccc(C(=O)O)cc1[N+](=O)[O-]
// pick min by Selectivity Index hCA II/hCA IX: 1 , 2 Please respond with the label that marks your chosen entry.
1
(1: 51.5, 2: 264.9)
